Catalogue of molecules with associated pIC50
system: PC3; experiment: CellTiter-Blue cell-based survival/proliferation assay, PC3; conditions: Homo sapiens, PC-3; PC3 prostate tumor cell line, 48 h
pIC50: −log10 of the molar value.

Per the records, this molecule ( CCOCc1ccc(C)c(Nc2ncc(-c3ccc(-n4cccn4)cc3)o2)c1 ) has pIC50 equal to ≥ 7.00

Per the records, this molecule ( CCOCc1ccc(C)c(Nc2ncc(-c3ccc(-n4nc[nH]c4=O)cc3)o2)c1 ) has pIC50 equal to < 6.00

Next item in the queue.
Per the records, this molecule ( CCOCc1ccc(C)c(Nc2nc(-c3ccc(-n4ccnc4)cc3)cs2)c1 ) has pIC50 equal to < 6.00

====

system: RL; assay: CellTiter-Blue cell-based survival/proliferation assay, RL; settings: Homo sapiens, Lymphoma cell line RL, 48 h, read-out: Anti-tumoral activity (measured IC50) RL
test readout: IC50

Tested on RL: CCOCc1ccc(C)c(Nc2ncc(-c3ccc(-n4ccnc4)cc3)o2)c1 . Observed IC50: > 1000 nM

====

Catalogue of compounds with associated pIC50
system: BT20; assay: CellTiter-Blue cell-based survival/proliferation assay, BT20; settings: Homo sapiens, BT-20; BT20 breast tumor cell line, 48 h
pIC50: −log10 of the molar value.

Per the records, this compound ( Cc1ccc(CO)cc1Nc1nc(-c2ccc(-n3cccn3)cc2)cs1 ) has pIC50 equal to < 6.00

Next item in the queue.
Per the records, this compound ( Cc1ccc(COCCN)cc1Nc1ncc(-c2ccc(-n3cccn3)cc2)o1 ) has pIC50 equal to < 6.00

====

tested on: ACHN; assay: CellTiter-Blue cell-based survival/proliferation assay, ACHN; conditions: Homo sapiens; ACHN kidney tumor cell line, 48 h
pIC50: −log10 of the molar value.
test readout: pIC50

Some solved entries appear below for comparison.
Per the records, this molecule ( CCOCc1ccc(C)c(Nc2ncc(-c3ccc(-c4ccnn4C)cc3)o2)c1 ) has pIC50 equal to < 6.00

Per the records, this molecule ( Cc1ccc(OCCN2CCOCC2)cc1Nc1ncc(-c2ccc(-n3cccn3)cc2)o1 ) has pIC50 equal to < 6.00

***
Per the records, this molecule ( CCOCc1ccc(C)c(Nc2ncc(-c3ccc(-n4cccn4)nc3)o2)c1 ) has pIC50 equal to 6.30 to 7.00

Per the records, this molecule ( COc1ccc(C)c(Nc2ncc(-c3ccc(-n4cccn4)cc3)o2)c1 ) has pIC50 equal to < 6.00

Per the records, this molecule ( CCOCc1ccc(C)c(Nc2nnc(-c3ccc(N4CCNC4=O)cc3)o2)c1 ) has pIC50 equal to ≥ 7.00

====

Tested on: PC3
Assay: CellTiter-Blue cell-based survival/proliferation assay, PC3
Conditions: Homo sapiens, PC-3; PC3 prostate tumor cell line, 48 h
Method: Cell-Based Proliferation Screening of Compounds CellTiter-Blue cell-based survival/proliferation assay (Promega G8080) was performed on tumor cell lines. A total of 1·10^4 cells/well/50 μl were seeded in a 96-wells plate. Treatment was initiated by addition of a 2× drug solution of 1/10 serial dilutions ranging from 0 to 10 μM. […] The amount of resorufin dye formed was quantified by its fluorescence emission at 590 nm using a scanning multiwell spectrophotometer (OPTIMA, BMG labtech, France). […]
Catalogue of compounds with associated IC50

Some solved entries appear below for comparison.
Per the records, this compound ( CCOCc1ccc(C)c(Nc2ncc(-c3ccc(-c4ccccn4)cc3)o2)c1 [Example 048] ) has IC50 equal to > 1 µM

Per the records, this compound ( Cc1ccc(C(=O)NCCN2CCN(C)CC2)cc1Nc1ncc(-c2ccc(-n3cccn3)cc2)o1 [Example 032] ) has IC50 equal to > 1 µM

Per the records, this compound ( CCOCc1ccc(C)c(Nc2ncc(-c3ccc(-c4cn[nH]c4)cc3)o2)c1 [Example 060] ) has IC50 equal to > 1 µM

Per the records, this compound ( CCOCc1cc(COCC)cc(Nc2ncc(-c3ccc(N4CCNC4=O)cc3)o2)c1 [Example 053] ) has IC50 equal to ≤ 0.1 µM

Per the records, this compound ( CCOCc1ccc(C)c(Nc2ncc(-c3ccc(N4CCN(C)C4=O)cc3)o2)c1 [Example 044] ) has IC50 equal to 0.5 to 1 µM

Per the records, this compound ( CCOCc1ccc(C)c(Nc2nnc(-c3ccc(N4CCNC4=O)cc3)o2)c1 [Example 008] ) has IC50 equal to ≤ 0.1 µM

Per the records, this compound ( CCOCc1ccc(C)c(Nc2ncc(-c3ccc(-n4ccccc4=O)cc3)o2)c1 [Example 049] ) has IC50 equal to > 1 µM

Per the records, this compound ( Cc1ccc(CO)cc1Nc1nc(-c2ccc(-n3cccn3)cc2)cs1 [Example 016] ) has IC50 equal to > 1 µM

Per the records, this compound ( CCOCc1cc(Nc2ncc(-c3ccc(N4CCNC4=O)cc3)o2)cc(OCCOC)c1 [Example 056] ) has IC50 equal to ≤ 0.1 µM

Per the records, this compound ( CCOCc1ccc(C)c(Nc2ncc(-c3ccc(-n4cncn4)cc3)o2)c1 [Example 034] ) has IC50 equal to > 1 µM

***
Per the records, this compound ( CCOCc1ccc(C)c(Nc2ncc(-c3ccc(-c4ccnn4C)cc3)o2)c1 [Example 061] ) has IC50 equal to > 1 µM

Per the records, this compound ( Cc1ccc(COCCN)cc1Nc1ncc(-c2ccc(-n3cccn3)cc2)o1 [Example 024] ) has IC50 equal to > 1 µM

Per the records, this compound ( CCOCc1cc(COCC)cc(Nc2ncc(-c3ccc(-n4cccn4)cc3)o2)c1 [Example 022] ) has IC50 equal to > 1 µM
